assay-notes: Stability in liver microsomes (monkey)
Assay type: in vitro ADME, cynomolgus monkeys
experimental-setup: c (cynomolgus monkey liver microsomes), 0.5 mg/mL, read-out: MMS Clint
Property: CLint scaled at 1 µM; scope: individual compounds

Consider the worked cases shown below.
CC(C)(C)CC(=O)Nc1nc2c(F)cc(C#N)cn2c1-c1ccc(OC(F)(F)F)cc1 : 130 mL/min/kg
CC(C)(C)CC(=O)Nc1nc2c(F)cc(C#N)cn2c1C12CC(C1)C2 : 15.3 mL/min/kg

Here's the next entry for you.
# input compound: CC(C)(C)CC(=O)Nc1nc2c(F)cc(C#N)cn2c1C1=CCCC1 ; wanted: its CLint scaled at 1 µM 129 mL/min/kg

---

assay-notes: Pharmacokinetic evaluation after single intravenous and gavage administration
experimental-setup: mouse, in vivo; CD-1 mice, IV:1 PO:5 mg/kg; read-out: Bioavailability F
metric-name: bioavailability (%)
Could you give me the number in %? Just the number is fine.

# input molecule: CC(C)(C)CC(=O)Nc1nc2c(F)cc(C#N)cn2c1-c1ccc(OC(F)(F)F)cc1 ; wanted: its bioavailability 51.1

---

assay-notes: Pharmacokinetic evaluation after single intravenous and gavage administration
experimental-setup: mouse, in vivo; CD-1 mice, IV:0.5 PO:2 mg/kg; read-out: Clearance CL
metric-name: clearance (mL/min/kg)
Could you give me the number in mL/min/kg? Just the number is fine.

# input compound: CC(C)(C)CC(=O)Nc1nc2c(F)cc(C#N)cn2c1C1=CCCC1 [Compound 3] ; wanted: its clearance 25.6

---

assay-notes: Plasma protein binding rate, equilibrium dialysis (rat plasma)
Type: in vitro ADME, Sprague-Dawley rats
experimental-setup: r (Sprague-Dawley rat plasma), dialysis 4 hours at 37 °C, read-out: Unbound PPB%
Protocol: The protein binding rates of the compounds in the plasma of CD-1 mice, Sprague-Dawley rats, beagle dogs, cynomolgus monkeys, and human were determined using equilibrium dialysis method. Commercially available plasma, dual-layer dialysis membrane, and equilibrium dialysis device. […] On the day of assay, the frozen plasma of CD-1 mice, Sprague-Dawley rats, beagle dogs, cynomolgus monkeys, and human was thawed in running cold tap water. […] The pH of the plasma was determined. […]
metric-name: fraction unbound at 4 h, 2 µM
Quick one: just the number, no unit, thanks!

Consider the worked cases shown below.
CC(C)(C)CC(=O)Nc1nc2c(F)cc(C#N)cn2c1-c1ccc(OC(F)(F)F)cc1 : 0.071
CC(C)(C)CC(=O)Nc1nc2c(F)cc(C#N)cn2c1C12CC(C1)C2 : 0.166
CC(C)(C)CC(=O)Nc1nc2cc3c(cc2n1C1CCC1)CCC3 : 0.003

# input compound: CC(C)(C)CC(=O)Nc1nc2cc3c(cc2n1C1(C)CCC1)CCC3 ; wanted: its fraction unbound at 4 h, 2 µM 0.002

# input compound: CC(C)(C)CC(=O)Nc1nc2c(F)cc(C#N)cn2c1C1=CCCC1 ; wanted: its fraction unbound at 4 h, 2 µM 0.097

---

tested-system: CYP2C19 (Homo sapiens)
Construct: from tissue; host or cells: human liver microsomes
Sequence (P33261 whole entry): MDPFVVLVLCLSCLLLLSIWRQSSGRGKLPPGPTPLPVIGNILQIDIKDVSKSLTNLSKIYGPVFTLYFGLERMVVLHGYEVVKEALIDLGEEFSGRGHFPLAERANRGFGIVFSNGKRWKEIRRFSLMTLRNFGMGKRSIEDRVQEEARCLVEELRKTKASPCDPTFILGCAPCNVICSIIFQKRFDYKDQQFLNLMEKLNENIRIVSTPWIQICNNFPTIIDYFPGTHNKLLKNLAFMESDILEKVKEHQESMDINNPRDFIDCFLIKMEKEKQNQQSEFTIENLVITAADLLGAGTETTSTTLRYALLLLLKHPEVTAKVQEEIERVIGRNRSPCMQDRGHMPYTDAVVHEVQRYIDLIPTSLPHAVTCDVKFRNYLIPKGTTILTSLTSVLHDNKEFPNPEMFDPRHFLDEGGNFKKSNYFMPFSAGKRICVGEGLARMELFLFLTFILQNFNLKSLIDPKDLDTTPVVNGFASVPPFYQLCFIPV
assay-notes: Drug-drug interaction, CYP inhibition in human liver microsomes, cocktail method
Type: in vitro ADME
metric-name: IC50 (µM)
Could you give me the number in µM? Just the number is fine.

What is its IC50 for CYP2C19 (Homo sapiens)? Entry: CC(C)(C)CC(=O)Nc1nc2c(F)cc(C#N)cn2c1-c1ccc(OC(F)(F)F)cc1 [Compound 1] 31

---

Property: pEC50; scope: individual compounds
tested-system: hKCNQ2/3 (Homo sapiens, UniProt O43525+O43526)
Sequence (O43525 whole entry): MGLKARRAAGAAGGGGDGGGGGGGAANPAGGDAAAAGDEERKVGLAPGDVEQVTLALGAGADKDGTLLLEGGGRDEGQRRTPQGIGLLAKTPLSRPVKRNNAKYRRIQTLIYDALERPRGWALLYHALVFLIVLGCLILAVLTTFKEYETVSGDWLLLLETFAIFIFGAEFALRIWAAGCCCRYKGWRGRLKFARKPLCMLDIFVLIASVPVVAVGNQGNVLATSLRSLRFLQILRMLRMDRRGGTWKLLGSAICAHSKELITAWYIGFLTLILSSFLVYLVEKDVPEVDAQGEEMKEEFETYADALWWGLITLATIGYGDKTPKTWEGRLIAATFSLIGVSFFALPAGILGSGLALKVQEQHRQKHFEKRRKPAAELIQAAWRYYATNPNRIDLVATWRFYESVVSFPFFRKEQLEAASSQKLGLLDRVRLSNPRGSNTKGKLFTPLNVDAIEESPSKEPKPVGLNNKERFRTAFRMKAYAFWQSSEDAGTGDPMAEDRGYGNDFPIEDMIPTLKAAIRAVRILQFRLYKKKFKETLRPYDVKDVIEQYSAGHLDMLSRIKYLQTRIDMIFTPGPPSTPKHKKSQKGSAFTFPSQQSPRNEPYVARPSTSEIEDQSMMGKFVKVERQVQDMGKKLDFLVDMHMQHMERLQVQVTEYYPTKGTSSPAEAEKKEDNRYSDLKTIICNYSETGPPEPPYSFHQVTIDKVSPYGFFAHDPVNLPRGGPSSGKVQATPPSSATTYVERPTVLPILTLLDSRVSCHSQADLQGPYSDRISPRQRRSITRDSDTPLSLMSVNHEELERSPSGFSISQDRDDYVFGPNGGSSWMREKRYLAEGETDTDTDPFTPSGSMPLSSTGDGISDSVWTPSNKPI
Sequence (O43526 whole entry): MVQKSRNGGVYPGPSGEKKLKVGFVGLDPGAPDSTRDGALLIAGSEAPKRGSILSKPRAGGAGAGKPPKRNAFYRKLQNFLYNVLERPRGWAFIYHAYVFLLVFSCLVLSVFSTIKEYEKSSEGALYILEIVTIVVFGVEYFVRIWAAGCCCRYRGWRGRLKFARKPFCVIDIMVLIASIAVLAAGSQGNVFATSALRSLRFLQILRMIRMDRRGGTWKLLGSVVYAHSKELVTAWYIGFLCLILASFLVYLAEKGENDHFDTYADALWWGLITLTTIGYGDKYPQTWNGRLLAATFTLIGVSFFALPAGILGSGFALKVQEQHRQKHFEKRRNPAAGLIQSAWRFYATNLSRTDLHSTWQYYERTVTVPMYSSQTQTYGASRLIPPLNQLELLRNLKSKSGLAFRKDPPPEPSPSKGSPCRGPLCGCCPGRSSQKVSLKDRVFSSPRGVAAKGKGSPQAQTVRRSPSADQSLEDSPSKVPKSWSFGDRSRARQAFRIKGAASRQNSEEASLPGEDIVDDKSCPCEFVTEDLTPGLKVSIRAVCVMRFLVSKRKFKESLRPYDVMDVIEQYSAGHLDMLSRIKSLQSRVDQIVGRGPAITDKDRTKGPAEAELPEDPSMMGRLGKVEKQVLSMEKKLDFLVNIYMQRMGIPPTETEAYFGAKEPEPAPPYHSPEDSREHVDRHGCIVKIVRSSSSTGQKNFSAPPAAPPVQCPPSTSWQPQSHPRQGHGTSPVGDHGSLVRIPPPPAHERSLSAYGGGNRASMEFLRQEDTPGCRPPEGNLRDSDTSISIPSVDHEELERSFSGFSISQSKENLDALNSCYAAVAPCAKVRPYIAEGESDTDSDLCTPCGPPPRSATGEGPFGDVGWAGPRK
assay-notes: hKCNQ2/3 thallium flux assay (FLIPR)
experimental-setup: agonistic effect, CHO cell line stably expressing hKCNQ2/3
pEC50 is defined as minus the log10 of a concentration measured in mol/L.

Consider the worked cases shown below.
CC(C)(C)CC(=O)Nc1nc2cc3c(cc2n1C1(C)CCC1)CCC3 : 6.80
CC(C)(C)CC(=O)Nc1nc2c(F)c3c(cc2n1C1CCC1)CCC3 : 6.38

Here's the next entry for you.
# input compound: CC(C)(C)CC(=O)Nc1nc2c(F)cc(C#N)cn2c1C1=CCCC1 ; wanted: its pEC50 6.32

---

assay-notes: Pharmacokinetic evaluation after single intravenous and gavage administration
experimental-setup: mouse, in vivo; CD-1 mice, IV:0.5 PO:2 mg/kg; read-out: Tissue distribution Vdss
metric-name: Vd (L/kg)
Could you give me the number in L/kg? Just the number is fine.

# input compound: CC(C)(C)CC(=O)Nc1nc2c(F)cc(C#N)cn2c1C1=CCCC1 ; wanted: its Vd 0.94

---

Property: fraction unbound at 4 h, 2 µM; scope: individual compounds
assay-notes: Plasma protein binding rate, equilibrium dialysis (human plasma)
Type: in vitro ADME
experimental-setup: dialysis 4 hours at 37 °C, read-out: Unbound PPB%
Quick one: just the number, no unit, thanks!

Consider the worked cases shown below.
CC(C)(C)CC(=O)Nc1nc2cc3c(cc2n1C1CCC1)CCC3 : 0.004
CC(C)(C)CC(=O)Nc1nc2cc3c(cc2n1C1(C)CCC1)CCC3 : 0.003
CC(C)(C)CC(=O)Nc1nc2c(F)cc(C#N)cn2c1C1=CCCC1 : 0.109
CC(C)(C)CC(=O)Nc1nc2c(F)cc(C#N)cn2c1C12CC(C1)C2 : 0.231

Here's the next entry for you.
# input compound: CC(C)(C)CC(=O)Nc1nc2c(F)cc(C#N)cn2c1-c1ccc(OC(F)(F)F)cc1 ; wanted: its fraction unbound at 4 h, 2 µM 0.051

---

assay-notes: Pharmacokinetic evaluation after single intravenous and gavage administration
experimental-setup: mouse, in vivo; CD-1 mice, IV:1 PO:5 mg/kg; read-out: Clearance CL
metric-name: clearance
Reply with the number, then its unit.

# input compound: CC(C)(C)CC(=O)Nc1nc2c(F)cc(C#N)cn2c1-c1ccc(OC(F)(F)F)cc1 ; wanted: its clearance 67.8 mL/min/kg

---

System: P-gp (MDR1)
assay-notes: Permeability evaluation, bidirectional transport (P-gp substrate)
Type: in vitro ADME
experimental-setup: dog, MDCK-MDR1; efflux ratio Papp (B-A)/Papp (A-B); read-out: HMDR1 ER
metric-name: efflux ratio at 90 min, 2 µM
Quick one: just the number, no unit, thanks!

# input compound: CC(C)(C)CC(=O)Nc1nc2c(F)cc(C#N)cn2c1-c1ccc(OC(F)(F)F)cc1 ; wanted: its efflux ratio at 90 min, 2 µM 5.04

---

assay-notes: Stability in liver microsomes (human)
Type: in vitro ADME
experimental-setup: h (human liver microsomes), 0.5 mg/mL, read-out: MMS Clint
Experimental: The purpose of this study was to evaluate the phase I metabolic stability of the assay sample in liver microsomes from CD-1 mice, Sprague-Dawley (SD) rats, beagle dogs, cynomolgus monkeys, and human. The animal and human liver microsomes used in this assay system were purchased from Xenotech, Corning, or other qualified suppliers. Preparation of buffer: 73.21 g of potassium phosphate dibasic trihydrate and 10.78 g of potassium dihydrogen phosphate were dissolved in 4000 mL of ultrapure water. […]
Property: CLint scaled at 1 µM; scope: individual compounds
Could you give me the number in mL/min/kg? Just the number is fine.

# input compound: CC(C)(C)CC(=O)Nc1nc2c(F)cc(C#N)cn2c1-c1ccc(OC(F)(F)F)cc1 [Compound 1] ; wanted: its CLint scaled at 1 µM 30

# input compound: CC(C)(C)CC(=O)Nc1nc2c(F)cc(C#N)cn2c1C1=CCCC1 [Compound 3] ; wanted: its CLint scaled at 1 µM 19

---

tested-system: hKCNQ2/3 (Homo sapiens, UniProt O43525+O43526)
assay-notes: hKCNQ2/3 thallium flux assay (FLIPR)
experimental-setup: agonistic effect, CHO cell line stably expressing hKCNQ2/3
Property: EC50; scope: individual molecules
Could you give me the number in nM? Just the number is fine.

Consider the worked cases shown below.
CC(C)(C)CC(=O)Nc1nc2c(F)cc(C#N)cn2c1C12CC(C1)C2 : 200
CC(C)(C)CC(=O)Nc1nc2cc3c(cc2n1C(C)(C)C)CCC3 : 120
CC(C)(C)CC(=O)Nc1nc2c(C(F)(F)F)cc(C#N)cn2c1C12CC(C1)C2 : 710

Here's the next entry for you.
# input molecule: CC(C)(C)CC(=O)Nc1nc2cc3c(cc2n1C1CCC1)CCC3 ; wanted: its EC50 420
